- Test target: Ubiquitin-activating enzyme e1, putative (Leishmania donovani (strain BPK282A1))
- Sequence (whole entry): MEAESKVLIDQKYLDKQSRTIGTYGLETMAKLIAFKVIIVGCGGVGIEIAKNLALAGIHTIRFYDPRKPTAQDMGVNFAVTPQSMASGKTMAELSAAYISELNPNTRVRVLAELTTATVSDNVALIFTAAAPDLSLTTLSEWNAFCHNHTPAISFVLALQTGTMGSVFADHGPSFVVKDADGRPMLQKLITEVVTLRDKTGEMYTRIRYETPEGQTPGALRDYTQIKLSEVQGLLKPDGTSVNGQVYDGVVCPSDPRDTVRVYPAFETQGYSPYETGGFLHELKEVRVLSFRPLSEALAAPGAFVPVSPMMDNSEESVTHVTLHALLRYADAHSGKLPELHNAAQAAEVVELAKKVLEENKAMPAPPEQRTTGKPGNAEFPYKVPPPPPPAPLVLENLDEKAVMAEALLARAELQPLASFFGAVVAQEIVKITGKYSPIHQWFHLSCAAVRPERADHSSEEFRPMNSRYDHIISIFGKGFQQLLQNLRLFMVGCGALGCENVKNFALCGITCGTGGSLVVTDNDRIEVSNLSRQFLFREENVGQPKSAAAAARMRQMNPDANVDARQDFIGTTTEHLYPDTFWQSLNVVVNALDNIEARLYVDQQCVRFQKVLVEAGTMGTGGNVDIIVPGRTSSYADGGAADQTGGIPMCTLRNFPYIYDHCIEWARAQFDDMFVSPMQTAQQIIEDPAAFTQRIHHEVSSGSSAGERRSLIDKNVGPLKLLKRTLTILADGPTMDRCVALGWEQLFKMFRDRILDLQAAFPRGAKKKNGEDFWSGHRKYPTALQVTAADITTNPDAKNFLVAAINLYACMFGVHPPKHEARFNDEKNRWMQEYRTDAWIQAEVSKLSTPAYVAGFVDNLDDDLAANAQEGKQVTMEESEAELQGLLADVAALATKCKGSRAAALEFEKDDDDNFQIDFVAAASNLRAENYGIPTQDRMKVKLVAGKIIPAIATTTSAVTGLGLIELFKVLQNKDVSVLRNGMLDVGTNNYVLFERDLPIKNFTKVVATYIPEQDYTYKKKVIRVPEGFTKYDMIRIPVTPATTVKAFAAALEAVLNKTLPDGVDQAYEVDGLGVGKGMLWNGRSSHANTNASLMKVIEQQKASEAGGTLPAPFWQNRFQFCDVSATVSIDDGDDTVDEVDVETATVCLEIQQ
- Experimental details: Leishmania donovani Ubiquitin Activating Enzyme (LdE1)
- Assay type: functional
- Design: scale not given: direction of the effect not stated beside the values
- Applied conditions: 30 µM
Results with a measured potency or affinity are listed apart.
Experimental readout: Percent Effect (%)
Answers are plain numbers, in %.

Worked set:
[[record]]
molecule = "CCC(C)NC(=O)c1ccccc1-n1cnnn1 (configuration not stated)"
units_of_measure = "%"
experimental_result = 5.33

[[record]]
molecule = "Cc1cccc(C2(CNC(=O)CCN3C(=O)CCC3=O)CCCC2)c1"
units_of_measure = "%"
experimental_result = 10.1

[[record]]
molecule = "Cn1cc(CN2CC[C@@H]3[C@@H](CCC(=O)N3CCC3=CCCCC3)C2)cn1"
units_of_measure = "%"
experimental_result = 8.22

[[record]]
molecule = "O=C(c1nn(-c2ccccc2F)cc1O)N1CCCC1"
units_of_measure = "%"
experimental_result = -10.8

[[record]]
molecule = "CC(C)CN1C[C@H]2CCN(c3ncccn3)CC[C@H]2S1(=O)=O"
units_of_measure = "%"
experimental_result = 20.8


Go through the list and state Percent Effect for each entry.
1. O=C(Nc1ccccc1)C1=CC2(CCNCC2)c2ccccc21
2. COc1cccc(C(=O)NCCCN2CCc3ccccc3C2)c1OC
3. CCN(CC1CCOC1)C(=O)Nc1ccc(OC)nc1 (configuration not stated)
4. c1cc(C2CCCN2Cc2nnnn2C2CC2)cs1 (configuration not stated)
5. O=C(NCCCc1ccncc1)C1CCCN(Cc2ccco2)C1 (configuration not stated)
6. Cc1nccnc1CN1CCC2(CCCN(C3CCOCC3)C2=O)C1 (configuration not stated)
7. CCc1ccc(C(=O)N2CCCC(n3cncn3)C2)o1 (configuration not stated)

Reply:
1: 9.09; 2: -5.33; 3: 17.9; 4: 4.17; 5: 5.33; 6: -2.74; 7: -4.17
